- system: LmrR_A92E (Lactococcus cremoris, UniProt A2RI36, A92E)
- assayOverview: binding affinity
measurementType: Kd (nM)

[Cu+2].c1cnc2c(c1)ccc1cccnc12 ... 65

----------
- system: LmrR A92Q (Lactococcus cremoris, UniProt A2RI36, A92Q)
- Sequence (A2RI36 1-116 A92Q): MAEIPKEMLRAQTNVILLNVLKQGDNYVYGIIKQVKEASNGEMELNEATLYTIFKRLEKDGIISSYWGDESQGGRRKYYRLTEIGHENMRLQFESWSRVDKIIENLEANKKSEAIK
- assayOverview: binding affinity
measurementType: Kd (nM)

[Cu+2].c1cnc2c(c1)ccc1cccnc12 ... 103
